Target: High affinity choline transporter 1 (Homo sapiens, UniProt Q9GZV3)
Sequence (Q9GZV3 whole entry): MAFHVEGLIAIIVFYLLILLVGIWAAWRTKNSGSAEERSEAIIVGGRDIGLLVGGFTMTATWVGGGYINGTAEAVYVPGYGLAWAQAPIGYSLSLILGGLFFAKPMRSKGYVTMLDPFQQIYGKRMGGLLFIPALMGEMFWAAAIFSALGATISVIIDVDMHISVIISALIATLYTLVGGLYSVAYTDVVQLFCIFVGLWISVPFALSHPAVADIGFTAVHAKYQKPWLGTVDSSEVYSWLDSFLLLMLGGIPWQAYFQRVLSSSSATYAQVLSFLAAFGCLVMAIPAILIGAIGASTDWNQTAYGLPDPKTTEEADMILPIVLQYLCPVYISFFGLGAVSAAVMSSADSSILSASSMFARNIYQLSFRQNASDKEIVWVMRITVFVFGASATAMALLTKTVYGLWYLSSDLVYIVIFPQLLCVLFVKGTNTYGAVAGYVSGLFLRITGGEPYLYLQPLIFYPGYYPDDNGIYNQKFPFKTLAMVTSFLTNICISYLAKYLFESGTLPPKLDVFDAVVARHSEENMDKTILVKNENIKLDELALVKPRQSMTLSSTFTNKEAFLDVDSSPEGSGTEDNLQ
Assay: human choline transporter blockers, potency – cell-based, 5-point CRC, membrane potential dye, dose response (AID 504840)
Format: functional
Calls of active or inactive are those of the source.
Parameter measured: IC50

Reference set (5 entries):
query: IC50 lookup needed for Cc1ccccc1C(=O)c1cccn1CC(=O)NC(C)c1ccccc1 (stereo unspecified) , thanks.
result: 12.6 µM (active)

query: IC50 lookup needed for Cc1cc(C)cc(OC(C)C(=O)Nc2ccc(S(=O)(=O)Nc3cc(C)nc(C)n3)cc2)c1 (stereo unspecified) , thanks.
result: 13.2 µM (active)

query: IC50 lookup needed for CCOC(=O)c1c(N)ssc1=S , thanks.
result: 8.48 µM (active)

query: IC50 lookup needed for COc1cccc(/C=C2\SC(=S)N(NS(=O)(=O)c3ccccc3)C2=O)c1OC , thanks.
result: 0.692 µM (active)

query: IC50 lookup needed for Cc1nn(C(C)C(=O)NC(C)CCc2ccccc2)c(=O)c2cc3occc3n12 (stereo unspecified) , thanks.
result: 17.4 µM (active)

Now for a further compound.
query: IC50 lookup needed for Cc1cc(Cl)c(S(=O)(=O)N2CCCC2)cc1OCC(=O)NC1CCCCC1 , thanks.
result: 4.68 µM (active)

###

Exercise: state measured EC50 for each of the molecules provided.
assay: Luminescence Cell-Based Dose Response HTS to Identify Activators of Luciferase Translation or Activity in H4 […] Cells. [Related pubchem assays: 1829 (Project Summary), 1814 (Primary HTS)]; format: functional
Active and inactive are the calls of the source.

query: EC50 lookup needed for Cn1nc(C(=O)NC2CCCCC2)c2c1-c1ccccc1SC2 , thanks.
result: 25.7 µM (active)

query: EC50 lookup needed for Cc1ccc(Nc2cc(-n3cccn3)ncn2)c(C)c1 , thanks.
result: 0.619 µM (active)

query: EC50 lookup needed for Brc1ccc2oc(-c3cc[nH]n3)cc2c1 , thanks.
result: 0.281 µM (active)

query: EC50 lookup needed for Clc1ccccc1-c1nc2ccccc2[nH]1 , thanks.
result: 0.36 µM (active)

query: EC50 lookup needed for CCC1(c2ccc(Cl)cc2)N=C(S)N(c2ccc(C)cc2)N1 (stereo unspecified) , thanks.
result: 11.2 µM (active)

Now for a further molecule.
query: EC50 lookup needed for CSC1=NN=C(c2ccc(C(C)(C)C)cc2)NN1 , thanks.
result: 36.5 µM (active)

###

target: Small ubiquitin-related modifier 1 (Homo sapiens, UniProt P63165); test: SUMO1 protein-protein binding blockers, potency – biochemical, FRET, dose response (AID 624383); assay type: functional; conditions: read-out: IC50_Mean
Sequence (P63165 whole entry): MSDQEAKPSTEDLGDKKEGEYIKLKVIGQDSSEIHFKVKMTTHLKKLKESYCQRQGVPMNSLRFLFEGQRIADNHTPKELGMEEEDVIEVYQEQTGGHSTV
The source made the active and inactive calls.
Outcome field: choose from active, inactive

Past entries and their recorded results:
query: Hi team, can someone confirm the assay call for O=S(=O)(Nc1c(S(=O)(=O)c2ccccc2)c2nc3ccccc3nc2n1C1CCCCC1)c1ccccc1 ?
result: active

query: Hi team, can someone confirm the assay call for C=C1c2c(Cl)ccc(O)c2C(=O)C2=C(O)[C@]3(O)C(=O)C(C(N)=O)=C(O)[C@@H](N(C)C)[C@@H]3[C@@H](O)[C@H]12.O=C(O)c1cc(S(=O)(=O)O)ccc1O [MECLOCYCLINE SULFOSALICYLATE] ?
result: inactive

query: Hi team, can someone confirm the assay call for O=C(O)c1cccc(-n2cccc2/C=C/[N+](=O)[O-])c1 ?
result: inactive

More entries:
query: Hi team, can someone confirm the assay call for O=C(C1=C(O)C(=O)N(c2nc3ccc(Cl)cc3s2)C1c1ccco1)c1ccco1 (centres undefined) ?
result: active

###

Biological target: Streptokinase A (Streptococcus pyogenes serotype M1, UniProt P10520)
Sequence (P10520 whole entry): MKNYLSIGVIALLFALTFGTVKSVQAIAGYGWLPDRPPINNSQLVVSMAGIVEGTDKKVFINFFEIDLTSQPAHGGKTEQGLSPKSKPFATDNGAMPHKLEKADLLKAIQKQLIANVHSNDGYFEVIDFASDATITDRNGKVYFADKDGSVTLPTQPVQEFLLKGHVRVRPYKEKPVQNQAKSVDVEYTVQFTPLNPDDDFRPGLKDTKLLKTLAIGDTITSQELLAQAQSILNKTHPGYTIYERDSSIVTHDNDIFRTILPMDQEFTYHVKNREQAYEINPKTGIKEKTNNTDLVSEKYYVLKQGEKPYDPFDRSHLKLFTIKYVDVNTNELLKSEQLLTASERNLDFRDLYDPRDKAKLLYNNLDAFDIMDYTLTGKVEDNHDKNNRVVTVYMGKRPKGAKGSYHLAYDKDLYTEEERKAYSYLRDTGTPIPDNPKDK
Assay: viability-normalized secreted streptokinase activity reduction – plasminogen activation absorbance, OD405, dose response (AID 1914);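 further: secreted streptokinase activity via plasminogen activation per viability signal from cell pellet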
Type: functional, Streptococcus pyogenes M1 GAS
Activity calls are given as the source filed them.
Parameter measured: EC50

query: EC50 lookup needed for Cc1ccc2[nH]c(O)c(N=NC(=O)c3ccc(NS(=O)(=O)c4cccs4)cc3)c2c1 , thanks.
result: > 150 µM (not active)

query: EC50 lookup needed for O=S(=O)(Nc1c(S(=O)(=O)c2ccccc2)c2nc3ccccc3nc2n1C1CCCCC1)c1ccccc1 , thanks.
result: 5.18 µM (active)

query: EC50 lookup needed for O=C(N/N=C/c1cc([N+](=O)[O-])ccc1O)c1cccc(NC(=O)c2cccc(Cl)c2)c1 , thanks.
result: > 150 µM (not active)

query: EC50 lookup needed for CCCCCCCCCCCCOC(=O)C[N+](C)(C)C , thanks.
result: 20.7 µM (active)

Return reported EC50 values for all items listed beneath this line.
1. O=C(COc1ccc(Cl)cc1Cl)Nc1ccc(-c2ccc(N3CCOCC3)nn2)cc1
2. Cc1n[nH]c(Nc2ccc(C(C)C)cc2)c1[N+](=O)[O-]
3. O=C(Cc1csc(NC(=O)Nc2cccc(Cl)c2)n1)NCc1ccccn1
4. Cc1nnc(Sc2cc(NCCCO)c([N+](=O)[O-])c3nonc23)s1
5. O=C(Nc1ccn(Cc2c(F)c(F)cc(F)c2F)n1)c1ccc(COc2ccc(Cl)cc2Cl)o1
6. C/C(=N\NC(=S)NCC(C)(C)C)c1cc(F)cc(F)c1O

result:
["> 150 µM (not active)", "22.3 µM (active)", "> 150 µM (not active)", "21.2 µM (inconclusive)", "> 150 µM (not active)", "0.501 µM (active)"]

###

Molecular target: Corticotropin-releasing factor receptor 2/Corticotropin-releasing factor-binding protein (Homo sapiens, UniProt P24387+Q13324)
Sequence (Q13324 whole entry): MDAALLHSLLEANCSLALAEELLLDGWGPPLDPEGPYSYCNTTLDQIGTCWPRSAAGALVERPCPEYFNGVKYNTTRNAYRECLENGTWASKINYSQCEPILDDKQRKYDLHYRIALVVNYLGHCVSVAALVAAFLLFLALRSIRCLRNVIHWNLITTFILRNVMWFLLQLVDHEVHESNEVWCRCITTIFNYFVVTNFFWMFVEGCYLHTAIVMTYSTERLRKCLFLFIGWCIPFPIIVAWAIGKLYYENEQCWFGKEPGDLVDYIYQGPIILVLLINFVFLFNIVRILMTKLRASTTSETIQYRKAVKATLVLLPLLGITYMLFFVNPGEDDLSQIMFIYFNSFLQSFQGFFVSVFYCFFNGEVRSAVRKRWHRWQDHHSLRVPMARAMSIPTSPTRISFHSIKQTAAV
Sequence (P24387 whole entry): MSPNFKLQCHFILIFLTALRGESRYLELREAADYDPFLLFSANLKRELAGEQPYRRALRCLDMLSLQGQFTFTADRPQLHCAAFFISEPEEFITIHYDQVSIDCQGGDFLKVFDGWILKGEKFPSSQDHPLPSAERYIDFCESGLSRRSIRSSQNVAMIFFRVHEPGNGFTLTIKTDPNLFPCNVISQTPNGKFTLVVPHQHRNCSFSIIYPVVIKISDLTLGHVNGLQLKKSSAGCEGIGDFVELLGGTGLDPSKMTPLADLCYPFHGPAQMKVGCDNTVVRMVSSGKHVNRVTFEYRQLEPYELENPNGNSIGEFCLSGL
Test: Dose Response confirmation of uHTS hits for small molecule antagonists of the CRF-binding protein and CRF-R2 receptor complex.
Type: functional
Conditions: read-out: IC50_Mean
The source made the active and inactive calls.
Outcome field: choose from true (active), false (inactive)

Past entries and their recorded results:
query: Hi team, can someone confirm the assay call for Cc1ccc(S(=O)(=O)N2CCOCC2)cc1C(=O)NC1CCN(Cc2ccccc2)CC1 ?
result: false

query: Hi team, can someone confirm the assay call for Cn1c(=O)c2cc3c(nc2n(C)c1=O)CC(c1ccccc1)CC3=O (stereo unspecified) ?
result: false

query: Hi team, can someone confirm the assay call for CCOc1ccc(-c2nc(N)ncc2Oc2cccc(OC)c2)c(O)c1 ?
result: false

More entries:
query: Hi team, can someone confirm the assay call for O=c1oc2ccc3ccccc3c2cc1-c1nnc(-c2ccccc2)o1 ?
result: true

query: Hi team, can someone confirm the assay call for CCN(CC)S(=O)(=O)c1cc(OC)c(C)cc1C ?
result: false

query: Hi team, can someone confirm the assay call for CCCN1C(=O)c2ccccc2NC1c1ccc(OC)c(CSc2ccccn2)c1 (stereo unspecified) ?
result: true

query: Hi team, can someone confirm the assay call for Cc1cc(C)c(OCCN(C)Cc2ccccc2)c(Br)c1 ?
result: false

query: Hi team, can someone confirm the assay call for COc1cccc(/C=C2\SC(=S)N(NS(=O)(=O)c3ccccc3)C2=O)c1OC ?
result: true

query: Hi team, can someone confirm the assay call for O=C(Nc1ccccc1Oc1cccnc1)C1CCCN(Cc2ccccc2O)C1 (stereo unspecified) ?
result: false

query: Hi team, can someone confirm the assay call for COc1ccc(/C=N/NC(=O)c2ccccc2NC(=O)c2ccco2)c(OC)c1 ?
result: false

query: Hi team, can someone confirm the assay call for O=C(CNC(=O)C1CCCCC1)Nc1ccc(F)c(Cl)c1 ?
result: false
